Biological target: T1, human galanin (mature, processed form) (human, UniProt P22466 33-62, 125I-labelled in the filtration and immunoprecipitation assays; biotinylated in the IGEN assay and in the BIAcore assay of Table 4)
T1 construct: mature; the assays used the mature peptide; also called biotinylated galanin
T1 peptide (looked up): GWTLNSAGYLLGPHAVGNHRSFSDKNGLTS
Assay: BIAcore 3000; IgG captured by goat anti-human IgG Fc on CM5, human galanin peptide flowed; 1:1 Langmuir fit
measurementLabel: Kd (nM)
Give the value, in units of nM, as a plain number.

Per the records, this binder ( humanized 5B4 IgG1: light chain zu5B4 v04 with heavy chain zu5B4 v06 (antibody, V domains shown, Human IgG1 / human kappa, expressed in E5 cells; VH of humanized 5B4-v6, VL of humanized 5B4-v4) VH: EVQLVQSGAEVKKPGATVKISCKVSGFNIEDYYMHWVQQAPGKGLEWIGRIDPENGNTIYDPKFQGRATITADTSTNTAYLDLSSLRSEDTAVYYCARGYVDWGQGTLVTVSS VL: DVVMTQSPLSLPVTLGQPASISCRSSQSIVHSDGDTYLEWYLQRPGQSPMLLIYKVSNRFSGVPDRFSGSGSGTDFTLKITRVEAEDVGVYYCFQGSHVPYTFGGGTKVEIKR ) has Kd equal to 1.6
